Test: In vivo distribution of doxorubicin in the liver of Wistar rats
Settings: female, rat, intravenous, 5 mg/kg
Structures can show the parent of a compound that is named as a salt.
measured metric: concentration at 2 h (ng/g)

- COc1cccc2c1C(=O)c1c(O)c3c(c(O)c1C2=O)C[C@@](O)(C(=O)CO)C[C@@H]3O[C@H]1C[C@H](N)[C@H](O)[C@H](C)O1 [Cl^−, doxorubicin hydrochloride]: 11.5

From: patent US10973772B2
